# credit: the supplement of paper PMC11451515

System: NOMO1
Test: cell viability relative to DMSO control; higher = less cytotoxic
Conditions: RPMI 5 mM glucose + 10% dialyzed FBS; 48 h; 0.00234 µM
Would you mind telling me the reported cell viability of each entry?
Give bare numbers, in %.

Batch lookup, cell viability per entry.
1. CN(C)CCc1c[nH]c2ccc(C[C@H]3COC(=O)N3)cc12
2. CC(C)Nc1cc(C(F)(F)F)cc2nc(NC(=O)c3cccnc3)nn12

Return:
108
109

###

Tested on: SEM cells
Assay: cell viability relative to DMSO control; higher = less cytotoxic
Settings: RPMI 5 mM glucose + 10% dialyzed FBS; 48 h; 0.19 µM
quantity: cell viability (%)
Numbers only, in %.

Recorded results for 3 molecules are shown here.
{"molecule": "O=C(Nc1cccc(Nc2ncc(Br)c(NCCc3cnc[nH]3)n2)c1)N1CCCC1", "target of assay": "SEM cells", "observed": 38.6}
{"molecule": "O=C(/C=C/c1cccc([S+](=O)([O-])Nc2ccccc2)c1)NO", "target of assay": "SEM cells", "observed": 83.6}
{"molecule": "C1CCC(C(CC2CCCCN2)C2CCCCC2)CC1 (stereo unspecified)", "target of assay": "SEM cells", "observed": 86.6}

Please give cell viability for each item listed below.
1. C[C@@H](O)[C@@H]1[C@H]2[C@@H](C)\C(=C(/N2C1=O)C(=O)OCOC(=O)C(C)(C)C)SC3CN(C3)/C4=N/CCS4
2. C[C@@H]1COCCN1C\2=C\C(=O)N\3CC[C@H](N(CC4=CN=CC(=C4)Cl)C3=N2)C(F)(F)F
3. CC1(C)OC2CC3C4CC(F)C/5=C/C(=O)/C=C\C5(C)C4C(O)CC3(C)[C@@]2(O1)C(=O)CO (stereo partly specified)
4. CNC1[C@@H](O)C(O[C@@H]2C(O)C(O[C@H]3O[C@H]([C@@H](C)NC)CC[C@H]3N)[C@@H](N)C[C@H]2N)OC[C@]1(C)O (stereo partly specified)
5. CC(C)Nc1cc(C(F)(F)F)cc2nc(NC(=O)c3cccnc3)nn12
6. COc1cc2c(Nc3ccc(Cl)c(Cl)c3F)ncnc2cc1OC[C@@H]1C[C@@H]2CN(C)C[C@@H]2C1
7. c1cc(CN2CCCNCCNCCCNCC2)ccc1CN1CCCNCCNCCCNCC1

Return:
1: 138; 2: 98.7; 3: 78; 4: 104; 5: 94; 6: 124; 7: 118

Enquiry: Output measured cell viability for this item: `COc1cc2c(Oc3ccc(NC(=O)C4(C(=O)Nc5ccc(F)cc5)CC4)cc3F)ccnc2cc1OCCCN1CCOCC1`
Return: 25.3

###

Could you please report measured cell viability for the items listed next?
Tested on: P12-Ichikawa
Experiment: cell viability relative to DMSO control; higher = less cytotoxic
Conditions: HPLM + 10% dialyzed FBS; 48 h; 0.000781 µM
Numbers only, in %.

Below is a list of compounds. For each, state its recorded cell viability.
1. COc1cc2c(Nc3ccc(Cl)c(Cl)c3F)ncnc2cc1OC[C@@H]1C[C@@H]2CN(C)C[C@@H]2C1
2. O=C1C[C@@H](c2ccc(O)cc2)Oc2cc(O)cc(O)c21
3. Cn1c(Nc2ccc(C(F)(F)F)cc2)nc2cc(Oc3ccnc(-c4nc(C(F)(F)F)c[nH]4)c3)ccc21

Return:
1: 105; 2: 130; 3: 120

Dear colleague, could you send me cell viability for each of the items below? Thanks.
1. C=CC1=C(C(=O)O)N2C(=O)[C@@H](NC(=O)/C(=N\O)c3csc(N)n3)[C@H]2SC1
2. CC1=CC=CC=C1CN2C(=O)C/3=C(/CCN(CC4=CC=CC=C4)C3)N\5CC\N=C25
3. N=C(N)NC(=O)c1nc(Cl)c(N)nc1N
4. CCCCCCCc1ccc(CCc2cccc(O)c2C(=O)O)cc1
5. CCCCNc1cc(C(=O)O)cc([S+](N)(=O)[O-])c1Oc1ccccc1
6. O=C(/C=C/c1cccc([S+](=O)([O-])Nc2ccccc2)c1)NO

Return:
1: 100; 2: 124; 3: 106; 4: 122; 5: 117; 6: 115

Below are 3 compounds. Give each one its cell viability.
1. CN1CCC(CC1)COC2=CN=C(N=C2)C3=CC(=CC=C3)CN4/N=C(\C=C/C4=O)C5=CC(=CC=C5)C#N
2. CCn1c(-c2nonc2N)nc2cncc(CNC3CCNCC3)c21
3. C\C1=C\C(=O)C2=C(C=CC=C2)C1=O

Return:
1: 103; 2: 122; 3: 108

Respectfully, I request cell viability for each entry included below.
1. COc1cc2c(Oc3ccc(NC(=O)C4(C(=O)Nc5ccc(F)cc5)CC4)cc3F)ccnc2cc1OCCCN1CCOCC1
2. CC1(C)CCC(=C(CN2CCN(CC2)C3=CC=C(C=C3)C(=O)N[S+]([O-])(=O)C4=CC(=C(N[C@H](CCN5CCOCC5)CSC6=CC=CC=C6)C=C4)[S+]([O-])(=O)C(F)(F)F)\C1)/C7=CC=C(Cl)C=C7
3. Cc1ncc(OC[C@@]2(c3cccc(F)c3)C[C@H]2C(=O)Nc2ccc(F)cn2)c(C)n1
4. C[C@H]1C[C@H]2[C@@H]3CCC4=CC(=O)C=C[C@]4(C)[C@@]3(F)[C@@H](O)C[C@]2(C)[C@@]1(O)C(=O)CO
5. CC(=O)Nc1ccc([C@H](C)C(=O)Nc2ncc(C(C)C)s2)cc1
6. COc1cc(Nc2ncc(F)c(Nc3ccc4c(n3)NC(=O)C(C)(C)O4)n2)cc(OC)c1OC
7. CCOc1ccc(Nc2nc(-c3c(C)nc4ccccn34)cs2)cc1
8. O=C1\C=C/C[C@@H]2[C@H]3CCCN4CCC[C@@H](CN12)[C@@H]34

Return:
[86.3, 116, 104, 114, 97.9, 107, 117, 98.2]

Quick request: cell viability for each listed item, please.
1. CCOc1cc(N)c(Cl)cc1C(=O)NCC1CN(Cc2ccc(F)cc2)CCO1 (configuration not stated)
2. CC(C)(C)c1cc(C=C(C#N)C#N)cc(Br)c1O

Return:
1. 104
2. 96.9
